Data provenance is paper PMC10218498.

- System: ZAP70
- assay comment: Immunoblotting of OT-1 CTL signaling proteins: ZAP70
- Assay type: cell-based, mice
- condition: OT-1, 20 μM, 24 h
property label: pZAP-70 protein expression (Western blot quantification)
# respond with the number and nothing more

COc1ccc(COc2cccc(NC(=O)Nc3ccc(Br)cc3)c2)cc1 :: 74
COc1ccc(COc2cccc(NC(=O)Oc3ccccc3)c2)cc1 :: 108
COc1ccc(COc2cccc(NC(=O)Nc3ccc(F)cc3)c2)cc1 :: 88

Next, consider the following molecule.
Hey, ZAP70 data for COc1ccc(COc2cccc(NC(=O)Nc3ccc(OC)cc3)c2)cc1 : pZAP-70 protein expression (Western blot quantification) came out at 77

---

- tested system: VEGFR-2 (Homo sapiens, UniProt P35968)
- Sequence (P35968 20-1356): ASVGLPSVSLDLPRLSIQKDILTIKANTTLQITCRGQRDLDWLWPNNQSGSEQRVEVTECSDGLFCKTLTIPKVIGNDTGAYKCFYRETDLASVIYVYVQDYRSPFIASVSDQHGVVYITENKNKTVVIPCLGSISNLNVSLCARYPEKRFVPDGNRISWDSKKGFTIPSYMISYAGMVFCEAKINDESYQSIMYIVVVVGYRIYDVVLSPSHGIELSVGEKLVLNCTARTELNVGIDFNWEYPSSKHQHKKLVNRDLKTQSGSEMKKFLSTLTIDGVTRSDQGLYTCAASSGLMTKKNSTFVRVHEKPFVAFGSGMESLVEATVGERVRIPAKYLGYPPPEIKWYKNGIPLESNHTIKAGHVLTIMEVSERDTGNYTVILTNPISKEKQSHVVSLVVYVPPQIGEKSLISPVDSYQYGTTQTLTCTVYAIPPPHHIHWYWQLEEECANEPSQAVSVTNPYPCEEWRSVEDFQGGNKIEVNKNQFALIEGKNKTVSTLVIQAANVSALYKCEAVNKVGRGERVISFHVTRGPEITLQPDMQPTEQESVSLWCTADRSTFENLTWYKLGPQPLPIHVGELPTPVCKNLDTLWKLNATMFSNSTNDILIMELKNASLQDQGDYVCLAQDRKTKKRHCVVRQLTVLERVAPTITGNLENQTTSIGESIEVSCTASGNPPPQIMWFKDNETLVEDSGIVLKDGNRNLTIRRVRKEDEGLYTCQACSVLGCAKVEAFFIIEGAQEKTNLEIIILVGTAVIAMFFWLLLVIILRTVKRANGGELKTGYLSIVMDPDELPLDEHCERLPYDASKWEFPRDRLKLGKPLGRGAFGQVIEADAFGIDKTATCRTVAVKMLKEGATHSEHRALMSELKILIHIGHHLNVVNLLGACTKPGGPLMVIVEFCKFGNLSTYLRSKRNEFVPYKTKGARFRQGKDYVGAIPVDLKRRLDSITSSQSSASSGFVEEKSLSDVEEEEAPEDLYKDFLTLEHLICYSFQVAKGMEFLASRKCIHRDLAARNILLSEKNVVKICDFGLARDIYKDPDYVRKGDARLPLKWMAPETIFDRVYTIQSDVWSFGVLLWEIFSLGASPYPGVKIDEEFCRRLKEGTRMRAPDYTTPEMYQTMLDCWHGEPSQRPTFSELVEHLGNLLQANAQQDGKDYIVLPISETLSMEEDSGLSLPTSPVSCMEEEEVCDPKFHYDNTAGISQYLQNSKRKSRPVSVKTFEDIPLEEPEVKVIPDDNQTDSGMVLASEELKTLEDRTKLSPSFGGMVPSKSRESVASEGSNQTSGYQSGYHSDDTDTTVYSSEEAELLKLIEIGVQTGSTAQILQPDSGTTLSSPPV
- assay comment: VEGFR-2 relative quantification by flow cytometry in HT-29
- Type: cell-based
- Set-up: Both membrane and total PD-L1 and VEGFR-2 were relatively determined using DMSO-treated cells as a negative control; endogenous in cells; host or cells: HT-29
- condition: HT-29, 20 µM, 24 h, relative to DMSO control = 100
property label: Total VEGFR-2 (%)
The response must be a number in % with no trailing unit.

Answered examples (4):
COc1ccc(COc2cccc(NC(=O)Nc3ccc(F)cc3)c2)cc1 :: 62
COc1ccc(COc2cccc(NC(=O)Nc3ccc(Br)cc3)c2)cc1 :: 46
COc1ccc(COc2cccc(NC(=O)Oc3ccccc3)c2)cc1 :: 43
COc1ccc(COc2cccc(NC(=O)Nc3ccc(OC)cc3)c2)cc1 :: 168

Hey, VEGFR-2 (Homo sapiens, UniProt P35968) data for Cc1c(COc2ccc(CN3CCCCC3C(=O)O)cc2Br)cccc1-c1ccccc1 (centres unmarked) [BMS-8, reference compound] : Total VEGFR-2 (%) came out at 86

---

- Test system: HT-29 (colon adenocarcinoma)
- assay comment: MTT cell proliferation assay, HT-29
- Format: cell-based, human
- condition: Homo sapiens, HT-29; MTT, 48 h of treatment; read-out: IC50 HT-29
Binary label based on IC50 with cut-off 20 µM: below gives Satisfied, not below gives Not satisfied.

COc1ccc(COc2cccc(NC(=O)Nc3cccc(OC)c3)c2)cc1 :: Not satisfied
COc1ccc(COc2cccc(NC(=O)Nc3cccc(Cl)c3)c2)cc1 :: Not satisfied

is_below(IC50, 20 µM) for COc1ccc(COc2cccc(NC(=O)Nc3ccc(F)cc3)c2)cc1 ?
Satisfied

is_below(IC50, 20 µM) for COc1ccc(COc2cccc(NC(=O)Nc3ccccc3)c2)cc1 ?
Not satisfied

is_below(IC50, 20 µM) for Cc1c(COc2ccc(CN3CCCCC3C(=O)O)cc2Br)cccc1-c1ccccc1 (stereo not drawn) [BMS-8, reference compound] ?
Satisfied

is_below(IC50, 20 µM) for COc1ccc(COc2cccc(NC(=O)Nc3ccccc3Cl)c2)cc1 ?
Not satisfied

is_below(IC50, 20 µM) for COc1ccc(COc2cccc(NC(=O)Nc3ccccc3F)c2)cc1 ?
Not satisfied

is_below(IC50, 20 µM) for COc1ccc(COc2cccc(NC(=O)Nc3ccccc3OC)c2)cc1 ?
Not satisfied

is_below(IC50, 20 µM) for COc1ccc(COc2cccc(NC(=O)Nc3ccc(Cl)cc3)c2)cc1 ?
Satisfied

is_below(IC50, 20 µM) for COc1ccc(COc2cccc(NC(=O)Nc3ccc(Br)cc3)c2)cc1 ?
Satisfied

is_below(IC50, 20 µM) for CNC(=O)c1cc(Oc2ccc(NC(=O)Nc3ccc(Cl)c(C(F)(F)F)c3)cc2)ccn1 [Sorafenib, sorafenib, reference compound] ?
Satisfied

is_below(IC50, 20 µM) for COc1ccc(COc2cccc(NC(=O)Nc3ccc(OC)cc3)c2)cc1 ?
Satisfied

---

Below is a list of entries, each paired with its recorded THP-1 living cells compared to control (%), Monocult. THP-1 value.
- Test system: THP-1 cells
- assay comment: Immune cell viability in monoculture and co-cultures with HT-29 by flow cytometry
- Assay type: cell-based, human
- condition: THP-1 monoculture, 20 μM
The response must be a number in % with no trailing unit.

Answered examples (4):
COc1ccc(COc2cccc(NC(=O)Nc3ccc(F)cc3)c2)cc1 :: 111
COc1ccc(COc2cccc(NC(=O)Oc3ccccc3)c2)cc1 :: 127
COc1ccc(COc2cccc(NC(=O)Nc3ccc(OC)cc3)c2)cc1 :: 103
Cc1c(COc2ccc(CN3CCCCC3C(=O)O)cc2Br)cccc1-c1ccccc1 (centres unmarked) [BMS-8, reference compound] :: 99

Reported THP-1 living cells compared to control (%), Monocult. THP-1 ( COc1ccc(COc2cccc(NC(=O)Nc3ccc(Br)cc3)c2)cc1 ) = 98

---

Below is a list of entries, each paired with its recorded Total PD-L1 (%) value.
- tested system: PD-L1 (Homo sapiens, UniProt Q9NZQ7)
- Sequence (Q9NZQ7 19-290): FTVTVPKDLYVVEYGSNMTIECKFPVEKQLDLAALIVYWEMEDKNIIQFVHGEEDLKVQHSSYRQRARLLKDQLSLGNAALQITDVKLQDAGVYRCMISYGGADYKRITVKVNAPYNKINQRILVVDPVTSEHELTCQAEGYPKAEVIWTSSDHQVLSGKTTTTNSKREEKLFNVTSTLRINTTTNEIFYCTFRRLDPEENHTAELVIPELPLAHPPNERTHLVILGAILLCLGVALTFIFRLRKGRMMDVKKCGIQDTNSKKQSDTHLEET
- assay comment: PD-L1 relative quantification by flow cytometry in A-549
- Type: cell-based
- Set-up: endogenous in cells; host or cells: A-549
- condition: A-549, 20 µM, 24 h, relative to DMSO control = 100
The response must be a number in % with no trailing unit.

Answered examples (5):
Cc1c(COc2ccc(CN3CCCCC3C(=O)O)cc2Br)cccc1-c1ccccc1 (stereo not drawn) [BMS-8, reference compound] :: 96
CNC(=O)c1cc(Oc2ccc(NC(=O)Nc3ccc(Cl)c(C(F)(F)F)c3)cc2)ccn1 [Sorafenib, sorafenib, reference compound] :: 102
COc1ccc(COc2cccc(NC(=O)Nc3ccc(F)cc3)c2)cc1 [Compound 2] :: 107
COc1ccc(COc2cccc(NC(=O)Oc3ccccc3)c2)cc1 [Compound 14] :: 141
COc1ccc(COc2cccc(NC(=O)Nc3ccc(Br)cc3)c2)cc1 [Compound 8] :: 80

Next, consider the following compound.
Reported Total PD-L1 (%) ( COc1ccc(COc2cccc(NC(=O)Nc3ccc(OC)cc3)c2)cc1 [Compound 11] ) = 135

---

- Tested on: CD80
- assay comment: CD80 relative quantification by flow cytometry in co-cultured THP-1
- Format: cell-based, human
- condition: membrane THP-1, 2:1 HT-29/THP-1; 48 h, 20 μM, related to non-treated cells
property label: % CD80 (%)
The response must be a number in % with no trailing unit.

Answered examples (4):
Cc1c(COc2ccc(CN3CCCCC3C(=O)O)cc2Br)cccc1-c1ccccc1 (centres unmarked) [BMS-8, reference compound] :: 101
COc1ccc(COc2cccc(NC(=O)Nc3ccc(F)cc3)c2)cc1 :: 105
COc1ccc(COc2cccc(NC(=O)Nc3ccc(OC)cc3)c2)cc1 :: 103
COc1ccc(COc2cccc(NC(=O)Oc3ccccc3)c2)cc1 :: 102

Next, consider the following compound.
Reported % CD80 ( COc1ccc(COc2cccc(NC(=O)Nc3ccc(Br)cc3)c2)cc1 ) = 103

---

- tested system: PD-L1 (Homo sapiens, UniProt Q9NZQ7)
- assay comment: PD-L1 relative quantification by flow cytometry in MCF-7
- Format: cell-based
- Design: endogenous in cells; host or cells: MCF-7
- condition: MCF-7, 20 µM, 24 h, control = 100
property label: % PD-L1 Memb.

Cc1c(COc2ccc(CN3CCCCC3C(=O)O)cc2Br)cccc1-c1ccccc1 (stereo not drawn) [BMS-8, reference compound] :: 88 ± 11%
CNC(=O)c1cc(Oc2ccc(NC(=O)Nc3ccc(Cl)c(C(F)(F)F)c3)cc2)ccn1 [Sorafenib, sorafenib, reference compound] :: 89 ± 2%
COc1ccc(COc2cccc(NC(=O)Nc3ccc(OC)cc3)c2)cc1 :: 100 ± 7%
COc1ccc(COc2cccc(NC(=O)Oc3ccccc3)c2)cc1 :: 81 ± 8%

Reported % PD-L1 Memb. ( COc1ccc(COc2cccc(NC(=O)Nc3ccc(F)cc3)c2)cc1 ) = 81 ± 10%

Reported % PD-L1 Memb. ( COc1ccc(COc2cccc(NC(=O)Nc3ccc(Br)cc3)c2)cc1 ) = 94 ± 12%

---

- System: HEK-293 (human embryonic kidney cells)
- assay comment: MTT cell proliferation assay, HEK-293
- Type: cell-based
- condition: HEK293, 48 h of treatment
property label: pIC50
Lab note — pIC50 values are minus log10 of concentrations in M.

Answered examples (5):
COc1ccc(COc2cccc(NC(=O)Nc3cccc(Br)c3)c2)cc1 [Compound 9] :: 6.15
COc1ccc(COc2cccc(NC(=O)Nc3ccccc3F)c2)cc1 [Compound 4] :: 4.80
COc1ccc(COc2cccc(NC(=O)Nc3cccc(F)c3)c2)cc1 [Compound 3] :: 5.43
COc1ccc(COc2cccc(NC(=O)Nc3ccccc3)c2)cc1 [Compound 1] :: 5.85
Cc1c(COc2ccc(CN3CCCCC3C(=O)O)cc2Br)cccc1-c1ccccc1 (centres unmarked) [BMS-8, reference compound] :: 4.22

Reported pIC50 ( CNC(=O)c1cc(Oc2ccc(NC(=O)Nc3ccc(Cl)c(C(F)(F)F)c3)cc2)ccn1 [Sorafenib, sorafenib, reference compound] ) = 5.30

Reported pIC50 ( COc1ccc(COc2cccc(NC(=O)Nc3ccccc3Cl)c2)cc1 [Compound 7] ) = 4.57
